B1: Chromodomain-helicase-DNA-binding protein 3, residues 374 to 426; numbered along this chain, Q12873 (parent)
chain: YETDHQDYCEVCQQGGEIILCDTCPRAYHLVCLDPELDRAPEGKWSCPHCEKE

# Variants of: B1
# method.notes: abundance fitness (aPCA) (normalised: wild type 0, dead -1); higher = more abundant; growth selection in yeast, the domain comes from the species named
# condition.parameters: Homo sapiens
Recorded abundance fitness, one value per entry.
measurement.label: abundance fitness

>  <mutation.code>
L37W

>  <quantitative.result>
-0.298

$$$$
>  <mutation.code>
Q6A

>  <quantitative.result>
-0.209

$$$$
>  <mutation.code>
C12R

>  <quantitative.result>
-0.954

$$$$
>  <mutation.code>
H29I

>  <quantitative.result>
-1.09

$$$$
>  <mutation.code>
Y28P

>  <quantitative.result>
-0.837

$$$$
>  <mutation.code>
H5R

>  <quantitative.result>
0.118

$$$$
>  <mutation.code>
Y8I

>  <quantitative.result>
0.21

$$$$
>  <mutation.code>
D38C

>  <quantitative.result>
-0.259

$$$$
>  <mutation.code>
C24W

>  <quantitative.result>
-1.12

$$$$
>  <mutation.code>
Y1D

>  <quantitative.result>
-0.2

$$$$
>  <mutation.code>
I18P

>  <quantitative.result>
-0.191

$$$$
>  <mutation.code>
D7Y

>  <quantitative.result>
-0.522

$$$$
>  <mutation.code>
V31C

>  <quantitative.result>
-0.254

$$$$
>  <mutation.code>
R26L

>  <quantitative.result>
0.155

$$$$
>  <mutation.code>
L30N

>  <quantitative.result>
-0.197

$$$$
>  <mutation.code>
L20Y

>  <quantitative.result>
0.102

$$$$
>  <mutation.code>
Q6S

>  <quantitative.result>
-0.439

$$$$
>  <mutation.code>
C24A

>  <quantitative.result>
-0.799

$$$$
>  <mutation.code>
D34E

>  <quantitative.result>
-0.011

$$$$
>  <mutation.code>
Q14M

>  <quantitative.result>
-0.022

$$$$
>  <mutation.code>
D38V

>  <quantitative.result>
0.011

$$$$

Ref: the Human Domainome abundance scans (Beltran et al. 2025)
